Catalogue of molecules with associated MIC
system: Streptococcus pyogenes; assay: In vitro antibacterial activity against gram-positive organism Streptococcus pyogenes EES61; format: functional; conditions: Streptococcus pyogenes; read-out: MIC
property_measured: MIC (µg/mL)

> print(dat)
                                   molecule  measured.number
1  Cc1c(N2CC[C@@]3(C[C@H]3N)C2)c(F)cn2c(=O)c(C(=O)O)cc(C3CC3)c12             0.02
2  Cc1c(N2C[C@@H](N)C[C@@H]2C)c(F)cn2c(=O)c(C(=O)O)cc(C3CC3)c12             0.05
3  Cc1c(F)c(N2CCC(N)C2)cc2c(C3CC3)cc(C(=O)O)c(=O)n12 (centres undefined)              3.1
4  Cc1c(N2C[C@@H](N)[C@@H](C)C2)c(F)cn2c(=O)c(C(=O)O)cc(C3CC3)c12             0.05
